Tested on: ct-DNA
Assay: Competitive displacement of Hoechst 33258 from DNA (fluorescence)
Type: binding, calf
Conditions: Hoechst 33258 1.9 µM, [DNA]b = 30 µM, compound 0-50 µM, 1 h
Procedure: For the UV–Vis, fluorescence and circular dichroism assays the concentration of ct-DNA was determined on a Varian Cary 100 Scan spectrophotometer from the absorption at 260 nm and the corresponding molar absorptivity of 6600 M^−1 cm^−1 (nucleobase concentration). […] Emission intensity of the dyes DNA-intercalator ethidium bromide, EB (λexc = 514 nm) and the minor-groove binder Hoechst 33,258 (λexc = 350 nm) was measured on iHR320 HORIBA JOBIN YVON spectrofluorometer. […]
satisfied means recorded Hoechst 33258 Ksv is 100000 M⁻¹ or above; not satisfied means it is below 100000 M⁻¹.

Check this compound for Hoechst 33258 Ksv at or above 100000 M⁻¹: Cc1ncc([N+](=O)[O-])n1CCCl.Cc1ncc([N+](=O)[O-])n1CCCl.[Cl][Zn][Cl] [[Zn(cenz)2Cl2]]
not satisfied

Check this compound for Hoechst 33258 Ksv at or above 100000 M⁻¹: Cc1ncc([N+](=O)[O-])n1CC(O)CCl.Cc1ncc([N+](=O)[O-])n1CC(O)CCl.[Cl-].[Cl-].[Cu+2] (centres unmarked) [[Cu(onz)2Cl2]]
satisfied

Check this compound for Hoechst 33258 Ksv at or above 100000 M⁻¹: Cc1ncc([N+](=O)[O-])n1CC(O)CCl.Cc1ncc([N+](=O)[O-])n1CC(O)CCl.[Cl][Zn][Cl] (centres unmarked) [[Zn(onz)2Cl2]]
not satisfied

Check this compound for Hoechst 33258 Ksv at or above 100000 M⁻¹: Cc1ncc([N+](=O)[O-])n1CCCl.Cc1ncc([N+](=O)[O-])n1CCCl.[Cl][Cu][Cl] [[Cu(cenz)2Cl2]]
satisfied

Check this compound for Hoechst 33258 Ksv at or above 100000 M⁻¹: Cc1ncc([N+](=O)[O-])n1CCCl.Cc1ncc([N+](=O)[O-])n1CCCl.[Br][Cu][Br] [[Cu(cenz)2Br2]]
satisfied

Check this compound for Hoechst 33258 Ksv at or above 100000 M⁻¹: Cc1ncc([N+](=O)[O-])n1CCCl.Cc1ncc([N+](=O)[O-])n1CCCl.[Br][Zn][Br] [[Zn(cenz)2Br2]]
satisfied

Check this compound for Hoechst 33258 Ksv at or above 100000 M⁻¹: Cc1n(CC(O)CCl)c([N+](=O)[O-])c[n+]1[Zn-2]([Br])([Br])[n+]1cc([N+](=O)[O-])n(CC(O)CCl)c1C (centres unmarked) [[Zn(onz)2Br2]]
not satisfied

Check this compound for Hoechst 33258 Ksv at or above 100000 M⁻¹: Cc1n(CC(O)CCl)c([N+](=O)[O-])c[n+]1[Cu-2]([Br])([Br])[n+]1cc([N+](=O)[O-])n(CC(O)CCl)c1C (centres unmarked) [[Cu(onz)2Br2]]
satisfied

----------
System: pBR322 plasmid DNA
Assay: Agarose gel electrophoresis, DNA cleavage
Assay type: biochemical
Settings: compound 10 (mM in the source), + H2Asc + H2O2
Protocol: Electrophoresis assays were performed in 1.5% agarose gel and 1× TBE buffer using the DNA plasmid pBR322. The plasmid (15 µM base pairs) was incubated with 10 and 50 μM concentrations of the coordination compounds for 1 h at 37 °C in presence and absence of ascorbic acid (50 μM) as reducing agent and hydrogen peroxide (500 µM) as ROS generator in a final volume of 20 μL. The DNA-cleaving compound [Cu(phen)2(H2O)](NO3)2 was used as reference. […]
%Damage strictly less than 90% = yes (1). Otherwise no (0).

Say whether its %Damage is strictly beneath 90%. Entry: Cc1ncc([N+](=O)[O-])n1CCCl.Cc1ncc([N+](=O)[O-])n1CCCl.[Br][Cu][Br] [[Cu(cenz)2Br2]]
no (0)

Say whether its %Damage is strictly beneath 90%. Entry: Cc1n(CC(O)CCl)c([N+](=O)[O-])c[n+]1[Zn-2]([Br])([Br])[n+]1cc([N+](=O)[O-])n(CC(O)CCl)c1C (stereo not drawn) [[Zn(onz)2Br2]]
no (0)

Say whether its %Damage is strictly beneath 90%. Entry: O.O=[N+]([O-])[O-].O=[N+]([O-])[O-].[Cu+2].c1cnc2c(c1)ccc1cccnc12.c1cnc2c(c1)ccc1cccnc12 [Cu(phen), reference compound]
no (0)

Say whether its %Damage is strictly beneath 90%. Entry: Cc1ncc([N+](=O)[O-])n1CCCl.Cc1ncc([N+](=O)[O-])n1CCCl.[Cl][Cu][Cl] [[Cu(cenz)2Cl2]]
no (0)

Say whether its %Damage is strictly beneath 90%. Entry: Cc1ncc([N+](=O)[O-])n1CC(O)CCl.Cc1ncc([N+](=O)[O-])n1CC(O)CCl.[Cl][Zn][Cl] (stereo not drawn) [[Zn(onz)2Cl2]]
yes (1)

Say whether its %Damage is strictly beneath 90%. Entry: Cc1ncc([N+](=O)[O-])n1CC(O)CCl.Cc1ncc([N+](=O)[O-])n1CC(O)CCl.[Cl-].[Cl-].[Cu+2] (stereo not drawn) [[Cu(onz)2Cl2]]
yes (1)

Say whether its %Damage is strictly beneath 90%. Entry: Cc1n(CC(O)CCl)c([N+](=O)[O-])c[n+]1[Cu-2]([Br])([Br])[n+]1cc([N+](=O)[O-])n(CC(O)CCl)c1C (stereo not drawn) [[Cu(onz)2Br2]]
no (0)
